Please respond with reported half-life for every item in the list.
assay: Pharmacokinetics of six compounds in rat plasma after oral administration of PYQ (HPLC-MS/MS); assay type: in vivo, Sprague–Dawley rats; details: female, Sprague-Dawley, po, PYQ orally 8 mL/kg, mean ± SD, n = 6
Answers are plain numbers, in h.

Worked set:
>  <Smiles Text>
C[C@@H]1O[C@@H](O[C@H]2C(=O)c3c(O)cc(O)cc3O[C@@H]2c2ccc(O)c(O)c2)[C@H](O)[C@H](O)[C@H]1O

>  <Unit Descriptor>
h

>  <half-life>
3.42

$$$$
>  <Smiles Text>
O=C(/C=C/c1ccc(O)c(O)c1)O[C@@H]1C[C@](O)(C(=O)O)C[C@@H](O)[C@H]1O

>  <Unit Descriptor>
h

>  <half-life>
1.86

$$$$
>  <Smiles Text>
O=Cc1ccc(O)c(O)c1

>  <Unit Descriptor>
h

>  <half-life>
0.93

$$$$

Kindly consider the entry below.
# half-life lookup, item `COc1cc(/C=C/C(=O)O)ccc1O`
0.9

* * *

Assignment: determine reported Room temperature 24 h measured value for the given molecules.
assay: Stability of the analytes in rat plasma QC samples under different storage conditions; format: in vitro ADME; settings: high QC level, nominal ng/mL: AST 500, FE 400, PRO 400, CH 500, PE 500, SAB 800, n = 6
One number for each entry.

>  <Smiles Text>
O=C(/C=C/c1ccc(O)c(O)c1)O[C@@H]1C[C@](O)(C(=O)O)C[C@@H](O)[C@H]1O

>  <Room temperature 24 h measured value>
499.00

$$$$

Provide each entry's Room temperature 24 h measured value from the list below.
1. C[C@@H]1O[C@@H](O[C@H]2C(=O)c3c(O)cc(O)cc3O[C@@H]2c2ccc(O)c(O)c2)[C@H](O)[C@H](O)[C@H]1O
2. O=Cc1ccc(O)c(O)c1

[498.07, 398.27]

Quick batch: Room temperature 24 h measured value for everything below.
1. COc1cc(/C=C/C(=O)O)ccc1O
2. C[C@@]12C[C@@]3(O)O[C@@H](O1)[C@]1(COC(=O)c4ccccc4)[C@H]3C[C@@]12O[C@@H]1O[C@H](CO)[C@@H](O)[C@H](O)[C@H]1O

1: 403.59; 2: 499.23

* * *

assay: Pharmacokinetics of six compounds in rat plasma after oral administration of PYQ (HPLC-MS/MS); format: in vivo, Sprague–Dawley rats; settings: female, Sprague-Dawley, po, PYQ orally 8 mL/kg, mean ± SD, n = 6, read-out: Cmax
Would you mind telling me the reported Cmax of each entry?
Give bare numbers, in ng/mL.

Lab note: each compound below needs its Cmax filled in.
1. O=Cc1ccc(O)c(O)c1
2. C[C@@]12C[C@@]3(O)O[C@@H](O1)[C@]1(COC(=O)c4ccccc4)[C@H]3C[C@@]12O[C@@H]1O[C@H](CO)[C@@H](O)[C@H](O)[C@H]1O
3. C[C@@H]1O[C@@H](O[C@H]2C(=O)c3c(O)cc(O)cc3O[C@@H]2c2ccc(O)c(O)c2)[C@H](O)[C@H](O)[C@H]1O
4. COc1cc(/C=C/C(=O)O)ccc1O

1430
2040
2270
1200

* * *

test: Pharmacokinetics of six compounds in rat plasma after oral administration of PYQ (HPLC-MS/MS); type: in vivo, Sprague–Dawley rats; settings: female, Sprague-Dawley, po, PYQ orally 8 mL/kg, mean ± SD, n = 6, read-out: tmax
Endpoint Label: Tmax (min)
Give bare numbers, in min.

>  <Smiles Text>
C[C@@]12C[C@@]3(O)O[C@@H](O1)[C@]1(COC(=O)c4ccccc4)[C@H]3C[C@@]12O[C@@H]1O[C@H](CO)[C@@H](O)[C@H](O)[C@H]1O

>  <Tmax / min>
15

$$$$

Now let's try a different one.
Request the reported Tmax associated with `C[C@@H]1O[C@@H](O[C@H]2C(=O)c3c(O)cc(O)cc3O[C@@H]2c2ccc(O)c(O)c2)[C@H](O)[C@H](O)[C@H]1O`
15
